System: Karpas 422
Assay: Cell Titer Glo viability assay, Karpas 422
Type: cell-based
Details: Homo sapiens, KARPAS-422, 72 h, read-out: Inhibition of Viability, EC50
pEC50: −log10 of the molar value.
OBSERVATION TYPE: pEC50

IN: For the compound O=P1(N(CCCl)CCCl)NCCCO1 (stereo not shown) [Cyclophosphamide, cyclophosphamide] , what pEC50 is on record?
OUT: < 5.00

----------
Test system: OCI-LY7
Test: Cell Titer Glo viability assay, OCI-LY7
Format: cell-based
Settings: Homo sapiens; OCI-LY7, DLBCL; single agent; 72 hours; read-out: Inhibition of Viability, EC50
Quick reference: pEC50 of the listed items.
Formally, pEC50 is defined as -log10 of the concentration c, with c in mol/L.

CC[C@]1(O)C[C@H]2CN(CCc3c([nH]c4ccccc34)[C@@](C(=O)OC)(c3cc4c(cc3OC)N(C=O)[C@H]3[C@@](O)(C(=O)OC)[C@H](OC(C)=O)[C@]5(CC)C=CCN6CC[C@]43[C@@H]65)C2)C1
8.34

IN: Test system OCI-LY7; read-out pEC50; what value for `COc1cccc2c1C(=O)c1c(O)c3c(c(O)c1C2=O)C[C@@](O)(C(=O)CO)C[C@@H]3O[C@H]1C[C@H](N)[C@H](O)[C@H](C)O1` ?
OUT: 6.70
